- EXPERIMENTAL DETAILS: Inhibition of LPS-induced AP1 transcriptional activation expressed in mouse RAW264.7 cells assessed as AP1 activity at 10 uM treated after LPS challenge measured after 24 hrs by luciferase reporter gene assay relative to control
Label rule, in plain words: Activity of 3 and up is t, under 3 is f.

Hi, just wondering whether `C[C@@]12CC[C@@H]3[C@@](C/C1=N\O)(C2)[C@@H](O)C[C@H]1[C@@]3(C)[C@@H](O)CC[C@@]1(C)C(=O)O` shows Activity of 3 or higher.
t

Same again, this time with `C[C@@]12CC[C@@H]3[C@@](CC[C@H]4[C@@]3(C)[C@@H](O)CC[C@@]4(C)C(=O)O)(C/C1=N\O)C2`
t

---

Let's look at some compounds and their measured Activity.
- EXPERIMENTAL DETAILS: Inhibition of LPS-induced AP1 transcriptional activation expressed in mouse RAW264.7 cells assessed as AP1 activity at 10 uM treated after LPS challenge measured after 24 hrs by luciferase reporter gene assay relative to control
Number, no unit, nothing else.

Endpoint output: Activity of `C[C@@]12CC[C@@H]3[C@@](CC[C@H]4[C@@]3(C)CCC[C@@]4(C)C(=O)O)(CC(=O)N1)C2` . Value?
3.19

Continuing:
Endpoint output: Activity of `C[C@@]12CC[C@@H]3[C@@](CC[C@H]4[C@@]3(C)CCC[C@@]4(C)C(=O)O)(CC(=O)O1)C2` . Value?
2.38

Same again, this time with `CC1=CC[C@@H]2[C@](CC#N)(CC[C@H]3[C@@]2(C)CCC[C@@]3(C)C(=O)O)C1`
2.22

Same again, this time with `C[C@@]12CC[C@@H]3[C@@](CC1=O)(C2)[C@@H](O)C[C@H]1[C@@]3(C)[C@@H](O)CC[C@@]1(C)C(=O)O`
2.98

Same again, this time with `C[C@@]12CC[C@@H]3[C@@](CC[C@H]4[C@@]3(C)CCC[C@@]4(C)C(=O)O)(C/C1=N\O)C2`
4.87

Same again, this time with `C[C@@]12CC[C@H]3[C@]4(C)CCC[C@@](C)(C(=O)O)[C@H]4C[C@H](O)[C@]3(C/C1=N\O)C2`
2.69

Same again, this time with `CC1=C[C@@]2(CC#N)CC[C@H]3[C@@](C)(CCC[C@@]3(C)C(=O)O)[C@@H]2CC1`
2.85
